Documented MAC Kpn across a set of compounds
Test system: Klebsiella pneumoniae ATCC 13833
Assay: MAC determination in the presence of subinhibitory colistin
Format: cell-based
Details: in the presence of 0.5 × MIC colistin
Measurement Kind: MAC Kpn (µg/mL)

compound="Cc1c(C(=O)NC23CC4CC(CC(O)(C4)C2)C3)nn(-c2ccccc2)c1-n1cccc1 [Compound 27]" tested_on="Klebsiella pneumoniae ATCC 13833" unit_of_measurement=µg/mL observed_result=32
compound="Cc1c(C(=O)Nc2ccc(S(C)(=N)=O)cc2)nn(-c2ccc(Cl)cc2)c1-n1cccc1 (stereo not shown) [Compound 49]" tested_on="Klebsiella pneumoniae ATCC 13833" unit_of_measurement=µg/mL observed_result=4
compound="CC(C)(C)OC(=O)Nc1c(C(=O)NCc2ccc(-c3ccc(OC(F)(F)F)cc3)cn2)cnn1-c1ccc([N+](=O)[O-])cc1 [Compound 22]" tested_on="Klebsiella pneumoniae ATCC 13833" unit_of_measurement=µg/mL observed_result=64

This collection of values is drawn from paper PMC9774939.
